Test system: isolated rat aorta
Assay: Relaxation effect on isolated rat aorta
Details: read-out: ED50 (M)
measurement kind: EC50 (M)
# value in M; strip the unit string

Input COc1ccc(-c2nc(C(=O)N3CCN(C)CC3)sc2-c2ccc(OC)cc2)cc1.Cl [Example 1, hydrochloride] . Output EC50: 6.2e-06

* * *

Test system: platelet aggregation
Assay: Platelet aggregation in vitro (collagen-induced, guinea-pig PRP)
Type: cell-based
Details: Cavia porcellus, collagen (0.5 µg/ml) as inducer
Where a name gives a salt, the structure may show the parent alone.
measurement kind: IC50 (nM)
# value in nM; strip the unit string

Input COc1ccc(-c2nc(NC(=N)N(C)C)sc2-c2ccc(OC)cc2)cc1 [Example 14, hydrochloride] . Output IC50: 42

* * *

Biological target: cyclooxygenase (Ovis aries, UniProt P05979)
Sequence (P05979 25-600): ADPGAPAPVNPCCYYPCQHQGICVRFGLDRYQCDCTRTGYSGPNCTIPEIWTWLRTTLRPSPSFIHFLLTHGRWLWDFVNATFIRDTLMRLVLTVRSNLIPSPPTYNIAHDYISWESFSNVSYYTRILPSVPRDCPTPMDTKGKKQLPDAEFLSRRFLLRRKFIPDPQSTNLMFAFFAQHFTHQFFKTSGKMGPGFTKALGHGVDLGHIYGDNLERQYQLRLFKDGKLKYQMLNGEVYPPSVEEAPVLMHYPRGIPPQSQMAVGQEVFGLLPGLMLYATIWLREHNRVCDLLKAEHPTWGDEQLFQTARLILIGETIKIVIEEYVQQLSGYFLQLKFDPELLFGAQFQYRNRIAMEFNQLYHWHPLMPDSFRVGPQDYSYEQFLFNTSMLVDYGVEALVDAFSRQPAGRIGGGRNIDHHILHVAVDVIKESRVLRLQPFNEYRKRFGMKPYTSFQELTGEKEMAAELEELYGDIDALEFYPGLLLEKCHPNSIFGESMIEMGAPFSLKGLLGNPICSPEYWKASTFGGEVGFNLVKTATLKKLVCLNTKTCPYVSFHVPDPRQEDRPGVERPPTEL
measurement kind: pIC50
pIC50 (log units): -log10 of the concentration in mol/L.

Input COc1ccc(-c2nc(C(=O)N3CCN(C)CC3)sc2-c2ccc(OC)cc2)cc1.Cl [Example 1, hydrochloride] . Output pIC50: 6.37
